biological target: T1, recombinant CD22 extracellular domain; assay: ELISA on plates coated with recombinant CD22 extracellular domain (coating 2, 0.2, 0.02 or 0.002 ug/ml per paragraph 227; the sheet does not say which), anti-human IgG-HRP, read at 450 nm
T1 construct: Kept apart from m18, which is cell-surface CD22; also called CD22 (analyte in the BIAcore runs); CD22 ECD
T1 sequence (chain, as listed by the source limits assumed): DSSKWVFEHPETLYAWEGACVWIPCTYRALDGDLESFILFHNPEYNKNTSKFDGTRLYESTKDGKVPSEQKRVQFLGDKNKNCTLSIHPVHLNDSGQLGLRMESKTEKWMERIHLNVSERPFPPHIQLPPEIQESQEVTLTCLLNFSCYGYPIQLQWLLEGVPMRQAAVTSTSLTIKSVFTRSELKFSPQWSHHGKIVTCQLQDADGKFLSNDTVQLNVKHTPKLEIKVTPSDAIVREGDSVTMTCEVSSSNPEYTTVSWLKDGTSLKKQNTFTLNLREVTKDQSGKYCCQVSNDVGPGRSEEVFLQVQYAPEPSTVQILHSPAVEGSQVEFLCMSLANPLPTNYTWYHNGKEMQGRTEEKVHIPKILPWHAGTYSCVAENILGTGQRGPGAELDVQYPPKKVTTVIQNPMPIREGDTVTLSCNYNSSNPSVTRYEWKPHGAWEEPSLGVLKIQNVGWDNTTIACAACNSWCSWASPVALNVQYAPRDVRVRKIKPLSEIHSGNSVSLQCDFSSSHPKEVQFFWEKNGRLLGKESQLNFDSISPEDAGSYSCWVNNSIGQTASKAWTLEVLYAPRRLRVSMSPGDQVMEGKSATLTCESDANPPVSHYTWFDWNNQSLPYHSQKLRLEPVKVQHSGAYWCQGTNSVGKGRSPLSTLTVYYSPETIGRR
Description: […]
experimental_endpoint: ELISA OD 450
Lab note: record just the number, no unit beside it.

The examples below pair each entry with its known result.
# binder, ELISA OD 450
rows = [
    ("VM1005 (antibody, V domains shown, Humanized antibody with human constant region; also called anti-CD22 Mab clone VM1005) VH: EVQLVQSGAEVKKPGATVKISCKVSGYVFTSYWLHWIRQSPSRGLEWLGYINPRNDYTEYNRIFKGRFVFSLDTSVSTAYLQICSLKAEDTAVYYCARRGITTFYWGQG VL: AIQLTQSPSSLSASVGDRVTITCKSSQSVLYSAVEKNYLAWYQQKPGQAPRLLIYWASTRERGVPSRFSGSGSGTDFTLTISSLQPEDFATYYCKQYLSSWTFGQG", 0.372),
    ("VM1011 (antibody, V domains shown, Humanized antibody with human constant region; also called anti-CD22 Mab clone VM1011) VH: QVQLQESGPGLVKPSQTLSLTCTVSGYVFTSYWLHWIRQPPGKGLEWIGYINPRNDYTEYNRIFKGRVTITADKSTSTAYMELSSLRSEDTAVYYCARRGITTFYWGQG VL: EIVLTQSPATLSLSPGERATLSCKSSQSVLYSAVEKNYLAWYQQKPGQAPRLLIYWASTRERGIPDRFSGSGSGTDFTLTISRLEPEDFAVYYCKQYLSSWTFGQG", 0.15),
]

Okay, now this binder:
Ask | State the recorded ELISA OD 450 for this entry: VM1004 (antibody, V domains shown, Humanized antibody with human constant region; also called anti-CD22 Mab clone VM1004) VH: EVQLVQSGAEVKKPGATVKISCKVSGYVFTSYWLHWIRQSPSRGLEWLGYINPRNDYTEYNRIFKGRFVFSLDTSVSTAYLQICSLKAEDTAVYYCARRGITTFYWGQG VL: EIVLTQSPATLSLSPGERATLSCKSSQSVLYSAVEKNYLAWYQQKPGKAPKLLIYWASTRERGIPDRFSGSGSGTDFTLTISRLEPEDFAVYYCKQYLSSWTFGQG
Reply | 0.444
